biological target: GnRH receptor (Homo sapiens, UniProt P30968); assay: GnRH-R reporter assay (NFAT promoter luciferase, leuprolide acetate as ligand); format: cell-based
Sequence (P30968 whole entry): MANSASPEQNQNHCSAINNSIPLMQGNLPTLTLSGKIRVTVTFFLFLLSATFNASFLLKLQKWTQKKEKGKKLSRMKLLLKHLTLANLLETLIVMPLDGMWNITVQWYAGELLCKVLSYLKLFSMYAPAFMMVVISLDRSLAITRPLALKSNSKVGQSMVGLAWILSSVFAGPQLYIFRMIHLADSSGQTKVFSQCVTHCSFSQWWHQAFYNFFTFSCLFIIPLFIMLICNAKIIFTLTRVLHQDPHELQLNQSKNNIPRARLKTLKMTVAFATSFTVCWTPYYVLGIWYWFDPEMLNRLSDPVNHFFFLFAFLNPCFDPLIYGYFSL
MEASURE: IC50 (nM)

>>> number("Cc1c(N2CCN(Cc3cccc(C(F)(F)F)c3)CC2)c(=O)n(C[C@H](NCCCC(=O)O)c2ccccc2)c(=O)n1Cc1c(F)cccc1C(F)(F)F")
9.9
